Recorded values, source PubChem BioAssay (NCI).

- Test system: OVCAR-4 ovarian
- testSummary: NCI-60 one-dose screen, 48 h
- assayConditions: 10 µM unless noted
About 83,000 compounds went through this panel and 20% of them were active in at least one assay; those are over-represented in the sample as a whole. The source made the active and inactive calls. Rule for the calls: active = growth percent below 10; inactive = the rest. Where a SMILES comes first, the peptide text is derived from it. [ ]: non-standard residue; d: D form. ξ: configuration not given here. ξD = NC(CC(=O)O)C(=O)O
Return exactly one item of active, inactive

Below are worked cases with known answers.
compound | answerLabel
Oc1ccc2ccccc2c1N=Nc1ccccn1 | active
Nc1ccc(C(=O)/C=C/c2ccccc2)cc1 | inactive

Which outcome was entered for the compound "CCN(CC)CCNc1ccc([N+](=O)[O-])c2sc3ccccc3c(=O)c12" in this test?
inactive

Which outcome was entered for the compound "O=C1C=CC(=O)N1c1cccc2c1CCCC2" in this test?
inactive

Which outcome was entered for the compound "CC(C)(C)c1ccc(O)c(Br)c1" in this test?
inactive

Which outcome was entered for the compound "Oc1ccc(Nc2ccc3ccccc3c2)cc1" in this test?
inactive

Which outcome was entered for the compound "CCCCCCCCCCCC1=NCCCN1CCCC" in this test?
inactive

Which outcome was entered for the compound "O=C(CBr)c1ccc(OC(=O)c2ccccc2)cc1" in this test?
inactive

Which outcome was entered for the compound "COc1cc(NC(=O)C2=C(C)NC(C)=C(C(=O)Nc3cc(OC)c(Cl)cc3OC)C2c2cccc([N+](=O)[O-])c2)c(OC)cc1Cl" in this test?
inactive

Which outcome was entered for the compound CCCCCCCCCCCCCCCC[N+]1(C)CCCC1c1cccnc1 (configuration not stated) in this test?
inactive

Which outcome was entered for the compound "O=C(C[P+](c1ccccc1)(c1ccccc1)c1ccccc1)c1ccccc1" in this test?
inactive

Which outcome was entered for the compound NCC(=O)NC(CC(=O)O)C(=O)O (configuration not stated) (H-Gly-[ξD]-OH) in this test?
inactive

###

- Test system: MOLT-4 leukemia
- testSummary: NCI-60 one-dose screen, 48 h (100 = growth as untreated, 0 = no growth, -100 = all killed)
- assayConditions: 10 µM unless noted
Compounds without any hit were thinned out: in the full panel of roughly 83,000, 20% have a hit.
endpoint: growth (%)
Answers are plain numbers, in %.

Some compounds with known growth results, for comparison:
compound | endpoint | result
NC(=S)N/N=C\c1nccc2c(C(F)(F)F)cccc12 | growth | -40.2
c1ccc(C2NCCNC2c2ccccc2)cc1 (centres undefined) | growth | 99.7
CCOC(=O)C1(C)CCCC1N (centres undefined) | growth | 103
Cc1nnc(N/N=C/c2ccc([N+](=O)[O-])o2)[nH]c1=O | growth | 5.88
CCOC(=O)C1=NN(c2ccccc2)C(=O)/C1=C\N1C(=O)/C(=C/c2cccc(O)c2)SC1=S | growth | 95.7

Batch request: growth per item, same order as input.
1. CC(C)(C)c1ccc(O)c(-c2ccccc2)c1
2. CCCC[n+]1c(/C=C\c2c(OC)cc(OC)cc2OC)ccc2ccccc21
3. O=C(/C(Cl)=N/O)c1ccc(-c2ccccc2)cc1
4. CC1(C)OC2C(COC(c3ccccc3)(c3ccccc3)c3ccccc3)OC(c3c[nH]c4c(N)ncnc34)C2O1 (centres undefined)
5. CCN(CC)CC(O)c1cc(-c2ccc(Cl)cc2)nc2cc(Cl)ccc12 (centres undefined)
6. COc1ccc(/C=C2/C(=O)ON=C2C)cc1
7. Cc1cc(Br)c2nsnc2c1[N+](=O)[O-]

-54.2
-22.5
83.3
-7.93
-18.3
107
39.4

###

- System: HCT-116 colon
- testSummary: NCI-60 one-dose screen, 48 h (100 = growth as untreated, 0 = no growth, -100 = all killed)
- assayConditions: 10 µM unless noted
- Experimental: Growth inhibition of the HCT-116 human tumor cell line is measured as a screen for anti-cancer activity. Cells are grown in 96 well plates and exposed to the test compound for 48 hours. Compounds are tested at a single concentration, which is 10^-5 M for most compounds. The reported endpoint is percent growth (GI% or GIPRCNT), where numbers from 0 - 100% represent growth inhibition, and numbers from -100% - 0 represent cell death. For example, a value of 40 represents 60% growth inhibition. […]
The panel holds about 83,000 compounds, 20% with a hit somewhere; the sample as a whole holds those more often.
Assign classes using reported growth values and the ranges low group (below 60%), middle group (60% to below 90%), high group (90% or more), please.

Below are worked cases with known answers.
compound | experimentalSystem | answerLabel
OC(c1cc(-c2ccc(Cl)cc2)nc2c(Cl)cccc12)C1CCCCN1 (stereo unspecified) | HCT-116 colon | low group
N#Cc1c2ccccc2nc2ccccc12 | HCT-116 colon | high group
CC1(C)OC2C(COC(c3ccccc3)(c3ccccc3)c3ccccc3)OC(c3c[nH]c4c(N)ncnc34)C2O1 (stereo unspecified) | HCT-116 colon | low group
O=[N+]([O-])c1ccc(C2N(Cc3ccc(Cl)cc3)CCN2Cc2ccc(Cl)cc2)cc1 | HCT-116 colon | middle group

Form field 'band' for "Oc1ccc(Cl)cc1C(c1cc(Cl)ccc1O)C(Cl)(Cl)Cl"
low group

Form field 'band' for "COC(=O)[C@]1(C)CCC[C@]2(C)c3ccc(C(C)C)cc3C(=O)[C@@H](Br)[C@@H]12"
middle group

Form field 'band' for "COC(=O)C(=[N+]=[N-])C(=O)c1ccc([N+](=O)[O-])o1"
middle group

Form field 'band' for "O=C(O)c1ccc2c(c1)C(=O)c1ccccc1C2=O"
high group

Form field 'band' for "c1csc(-c2[nH]nc3c2CCc2ccccc2-3)c1"
high group

Form field 'band' for O=C(c1ccccc1)C(O)C(Br)(CBr)c1ccccc1 (stereo unspecified)
low group

Form field 'band' for "O=C(NNc1ccccc1)OCc1ccccc1"
middle group

###

- System: SR leukemia
- testSummary: NCI-60 one-dose screen, 48 h (100 = growth as untreated, 0 = no growth, -100 = all killed)
- assayConditions: 10 µM unless noted
The panel holds about 83,000 compounds, 20% with a hit somewhere; the sample as a whole holds those more often.
Parameter threshold = 80%. Response is Condition met when growth meets or exceeds it, else Condition not met.

Below are worked cases with known answers.
compound | answerLabel
Cc1onc(-c2ccccc2)c1C(=O)N/N=C/c1cc(Cl)cc(Cl)c1O | Condition not met
Oc1ccc2c(c1)CCc1ccccc1-2 | Condition met
CC1=CC(=NC(=O)CBr)C=C/C1=N\S(=O)(=O)c1ccccc1 | Condition not met
Oc1c(Cl)cc(Cl)cc1C=NCC1CCC(CN=Cc2cc(Cl)cc(Cl)c2O)CC1 (stereo not given) | Condition not met
C=C(C(N)=O)C(N)C(=O)O (stereo not given) | Condition met

Determine whether measured growth meets or exceeds 80% for "[Cl-].[Rh+3].c1ccc(-c2ccnc3c2ccc2c(-c4ccccc4)ccnc23)cc1.c1ccc(-c2ccnc3c2ccc2c(-c4ccccc4)ccnc23)cc1.c1ccc(-c2ccnc3c2ccc2c(-c4ccccc4)ccnc23)cc1"
Condition met

Determine whether measured growth meets or exceeds 80% for "C1=C(c2ccccc2)c2ccccc2C1"
Condition met

Determine whether measured growth meets or exceeds 80% for "Nc1nc(N)c2cc(Sc3cccc(C(F)(F)F)c3)ccc2n1"
Condition not met

Determine whether measured growth meets or exceeds 80% for CCC(C)(O)Cc1ccc(Cl)cc1 (stereo not given)
Condition met

Determine whether measured growth meets or exceeds 80% for "O=C(O)c1cccc2cccc(-c3c4ccc(=O)c(O)c-4oc4c(O)c(O)ccc34)c12"
Condition met

###

- Tested on: NCI-H322M lung
- testSummary: NCI-60 one-dose screen, 48 h
- assayConditions: 10 µM unless noted
This is part of a sample that, as a whole, favours compounds with a hit. Of some 83,000 tested, about 20% had one in any assay. Activity calls are given as the source filed them. Rule for the calls: active = growth percent below 10; inactive = the rest.
Return exactly one item of Yes = active, No = inactive

Below are worked cases with known answers.
compoundStructure | answerLabel
CCc1oc2ccccc2c1C(=O)c1cc(Br)c(O)c(Br)c1 | No
O=C1/C(=C/c2ccccc2)CCC/C1=C\c1ccccc1 | No
COc1cc2c(c(OC)c1OC)-c1ccc(NCc3ccccc3)c(=O)cc1[C@@H](NC(C)=O)CC2 | No
Cc1ccc(Nc2ccc(O)c3c2C(=O)c2c(O)ccc(Nc4ccc(C)cc4)c2C3=O)cc1 | No

Could you now consider this next compound?
Which outcome was entered for the compound "CCN1/C(=C/C(C)=C/c2sc3ccc4ccccc4c3[n+]2CC)Sc2ccc3ccccc3c21" in this test?
Yes

###

Provide the recorded growth for the entries that follow.
- Test system: SNB-19 CNS
- testSummary: NCI-60 one-dose screen, 48 h (100 = growth as untreated, 0 = no growth, -100 = all killed)
- assayConditions: 10 µM unless noted
This is part of a sample that, as a whole, favours compounds with a hit. Of some 83,000 tested, about 20% had one in any assay.
Numbers only, in %.

compound | growth [%]
CCCCCCCCCCCCCCCCCC1=NCCCN1CCO | 101
CC(C)N=C(N)/N=C(\N)Nc1ccc2ccc3ccccc3c2c1 | -92.6

Batch request: growth per item, same order as input.
1. COc1ccc(C(OCC2OC(n3ccc(NC(=O)c4ccccc4)nc3=O)C(O)C2O)(c2ccccc2)c2ccccc2)cc1 (stereo not given)
2. Oc1c(C(Nc2ccccc2)c2ccccc2)ccc2cccnc12 (stereo not given)
3. O=[N+]([O-])c1ccc(C(Br)c2ccc([N+](=O)[O-])cc2)cc1

54.7
46.8
106
